target: human full-length glucocorticoid receptor (Homo sapiens); construct: recombinantly expressed human full-length glucocorticoid receptor; purchased PanVera Co., Madison, Wis; P2816; assay: Glucocorticoid Receptor Binding Assay (II), fluorescence polarization competitor kit (Fluormone GS1); settings: cell lysate with recombinant human full-length GR
Sequence (P04150 whole entry): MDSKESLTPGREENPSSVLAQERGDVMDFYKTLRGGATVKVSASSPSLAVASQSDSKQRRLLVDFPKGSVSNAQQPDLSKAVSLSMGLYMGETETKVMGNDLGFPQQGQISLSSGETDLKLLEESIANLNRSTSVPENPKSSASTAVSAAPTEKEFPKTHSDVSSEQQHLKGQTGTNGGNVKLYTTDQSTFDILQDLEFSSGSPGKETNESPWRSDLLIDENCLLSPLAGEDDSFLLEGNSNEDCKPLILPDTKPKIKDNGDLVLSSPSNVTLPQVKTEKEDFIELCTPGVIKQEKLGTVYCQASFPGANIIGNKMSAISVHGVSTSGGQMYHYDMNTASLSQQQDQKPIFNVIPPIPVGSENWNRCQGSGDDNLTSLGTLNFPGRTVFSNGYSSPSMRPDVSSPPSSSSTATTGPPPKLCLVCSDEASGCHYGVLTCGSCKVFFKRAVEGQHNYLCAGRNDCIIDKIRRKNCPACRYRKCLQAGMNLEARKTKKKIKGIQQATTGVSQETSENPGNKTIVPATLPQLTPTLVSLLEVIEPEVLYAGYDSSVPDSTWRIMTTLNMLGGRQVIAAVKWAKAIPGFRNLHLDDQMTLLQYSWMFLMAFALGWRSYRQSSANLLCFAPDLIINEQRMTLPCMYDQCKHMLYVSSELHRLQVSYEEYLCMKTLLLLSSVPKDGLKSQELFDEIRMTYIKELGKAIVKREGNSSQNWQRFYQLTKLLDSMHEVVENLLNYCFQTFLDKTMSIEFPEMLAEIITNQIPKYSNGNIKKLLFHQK
PROPERTY_MEASURED: Ki (nM)

Consider the worked cases shown below.
COMPOUND: CC(C)CC(c1ccc2c(cnn2-c2ccc(F)cc2)c1)C(C)(C)CNC(=O)NC(C)C (centres unmarked)
Ki / nM: 7.1
--
COMPOUND: CC(C)(COC(=O)NCC(F)(F)F)C(c1ccccc1)c1ccc2c(cnn2-c2ccc(F)cc2)c1 (centres unmarked)
Ki / nM: 28
--
COMPOUND: COC(=O)C(=O)NCC(C)(C)[C@H](c1ccccc1)c1ccc2c(cnn2-c2ccc(F)cc2)c1
Ki / nM: 62
--
COMPOUND: CC(C)(CNC(=O)CC(F)(F)F)[C@@H](c1ccccc1)c1ccc2[nH]ncc2c1 [(S)-82]
Ki / nM: 39

I. CC(C)CC(c1ccc2c(cnn2-c2ccc(F)cc2)c1)C(C)(C)CNC(=O)C(F)(F)F (centres unmarked)
II. CC(=O)C(C)(C)C(c1ccccc1)c1ccc2c(cnn2-c2ccc(F)cc2)c1 (centres unmarked)
Exam item: Sorting by Ki in descending order, would I or II appear first? I would appreciate it if you answered with the label of your choice.
Marked response: II

A. CC(C)CC(c1ccc2c(cnn2-c2ccc(F)cc2)c1)C(C)(C)CNS(=O)(=O)CC(F)(F)F (single isomer, unassigned) [Example 57A]
B. CC(C)CC(c1ccc2c(cnn2-c2ccc(F)cc2)c1)C(C)(C)CNC(=O)N(C)C (centres unmarked)
Exam item: Sorting by Ki in descending order, would A or B appear first? I would appreciate it if you answered with the label of your choice.
Marked response: A
